Tested on: Panc 02.03
Assay: Cell viability assay
Type: cell-based
Conditions: Homo sapiens, Panc 02.03, 72 h, read-out: IC50 (mean ± SD)
measured-attribute: IC50 (µM)

> print(dat)
                                   compound  quantitative.readout
1  NS(=O)(=O)OC[C@@H]1C[C@@H](n2ccc3c(N[C@H]4CCc5ccccc54)ncnc32)C[C@@H]1O [MLN4924]                 0.356
